test: Toxicity in DENV-2 antiviral assay plates (ATPlite cell viability); conditions: African green monkey, CC50, Vero cells, same plates as DENV-2 antiviral assay
experimental endpoint: CC50 (µM)
Give a bare numeral; the unit µM is implied.

* COc1cc(NC(C(=O)N2CCc3c(C)cc(OC(F)(F)F)cc32)c2ccc(Cl)cc2)cc(OCCCC(=O)O)c1 (single isomer, unassigned) | 13

From here, focus on the item given below.
The value of CC50 measured for the compound COc1cc(NC(C(=O)N2CCc3cc(F)c(C(F)(F)F)cc32)c2ccc(Cl)cc2)cc(OCCCC(=O)O)c1 (single isomer, unassigned) turned out to be 12

Origin of measurements: patent US11053196B2
